Measured Kd by item
- tested on: T1, EsCas13d, nuclease-dead (Eubacterium siraeum, UniProt B0MS50, R295A;H300A;R849A;H854A)
- T1 sequence: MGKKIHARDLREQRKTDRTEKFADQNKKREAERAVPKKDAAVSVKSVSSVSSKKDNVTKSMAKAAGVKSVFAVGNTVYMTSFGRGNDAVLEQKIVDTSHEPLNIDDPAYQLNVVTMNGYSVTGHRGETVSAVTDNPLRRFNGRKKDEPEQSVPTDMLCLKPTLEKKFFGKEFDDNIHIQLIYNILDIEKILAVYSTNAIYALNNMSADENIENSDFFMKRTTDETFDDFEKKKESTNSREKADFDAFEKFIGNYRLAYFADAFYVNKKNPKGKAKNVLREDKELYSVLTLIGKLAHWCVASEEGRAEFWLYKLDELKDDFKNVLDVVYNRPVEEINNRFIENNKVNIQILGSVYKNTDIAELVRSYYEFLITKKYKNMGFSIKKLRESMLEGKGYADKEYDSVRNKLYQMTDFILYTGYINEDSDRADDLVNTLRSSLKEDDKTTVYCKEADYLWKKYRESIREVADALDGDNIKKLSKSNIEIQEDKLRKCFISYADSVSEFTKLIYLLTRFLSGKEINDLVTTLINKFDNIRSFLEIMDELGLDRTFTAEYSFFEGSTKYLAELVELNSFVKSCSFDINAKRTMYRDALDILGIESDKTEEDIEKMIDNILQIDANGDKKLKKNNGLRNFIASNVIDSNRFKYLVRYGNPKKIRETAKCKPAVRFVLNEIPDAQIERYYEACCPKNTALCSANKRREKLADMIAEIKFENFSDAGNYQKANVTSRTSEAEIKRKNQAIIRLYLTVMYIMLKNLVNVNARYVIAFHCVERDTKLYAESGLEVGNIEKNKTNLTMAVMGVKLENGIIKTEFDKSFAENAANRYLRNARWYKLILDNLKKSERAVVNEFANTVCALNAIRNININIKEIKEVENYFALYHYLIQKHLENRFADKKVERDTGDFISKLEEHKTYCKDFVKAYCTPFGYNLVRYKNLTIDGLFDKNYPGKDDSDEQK
- assay info: crRNA (strand 1, pre-loaded); Mg2+; 40 mM Tris-HCl pH 7.5, 150 mM NaCl, 6 mM MgCl2, 1 mM DTT, 0.1% Tween-20, 0.2 mg/ml BSA; 25 C; 10 min per concentration, then washed
- condition info: tags: His6-TwinStrep-SUMO cleaved; N-terminal SNAP kept (SNAP-Surface 488); label: 3' end held by stalled T7 RNA polymerase
Dear colleague, please return just the value in nM, with no unit written.

Examples with their reported Kd follow.
INSERT INTO results (binder, reported_endpoint, assay_value) VALUES
  ('target 2 MT 5''PFS UGU 3''PFS UAC (mixed) RNA 1: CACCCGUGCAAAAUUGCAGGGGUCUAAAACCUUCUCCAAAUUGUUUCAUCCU RNA 2: GGGAAUGGAUCCACAUCUACGAAUUCUGUAGGAUGAAACAAUUUGGAGAAGUACAGAUCGGAAGAGCACACGU', 'Kd', 25),
  ('target 3 insG 3'' of 9,insG 3'' of 7 (mixed) RNA 1: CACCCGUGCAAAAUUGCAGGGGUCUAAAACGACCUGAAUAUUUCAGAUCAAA RNA 2: GGGAAUGGAUCCACAUCUACGAAUUCGUUUUUGAUCUGAAAUAGUUGCAGGUCUGCAGAUCGGAAGAGCACACGU', 'Kd', 63),
  ('target 2 MT 5''PFS GUA 3''PFS UAG (mixed) RNA 1: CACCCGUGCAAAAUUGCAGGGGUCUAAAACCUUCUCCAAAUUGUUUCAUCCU RNA 2: GGGAAUGGAUCCACAUCUACGAAUUCGUAAGGAUGAAACAAUUUGGAGAAGUAGAGAUCGGAAGAGCACACGU', 'Kd', 11);

Alright, here's another binder for you.
target 2 MT 5'PFS UUU 3'PFS CAC (mixed) RNA 1: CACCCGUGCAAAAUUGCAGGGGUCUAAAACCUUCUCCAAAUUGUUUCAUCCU RNA 2: GGGAAUGGAUCCACAUCUACGAAUUCUUUAGGAUGAAACAAUUUGGAGAAGCACAGAUCGGAAGAGCACACGU has a reported Kd of 7.5
